Tested target: T1, CREB 285bZIP wild type (pseudo-WT, Cys to Ser) (human, UniProt P16220-1 285-339, C300S;C310S;C337S)
T1 sequence: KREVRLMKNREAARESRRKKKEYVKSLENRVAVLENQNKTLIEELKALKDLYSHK
Test summary: stopped-flow fluorescence (koff/kon); koff 2.531 s-1; kon 6.7 nM-1 s-1; 10 mM Mg2+; 10 mM MES pH 6.5, 150 mM NaCl, 10 mM MgCl2, 0.05% Tween-20, 25 C; NMR: 10 mM Tris-d11, 150 mM NaCl, 10 mM MgCl2, 1 mM NaN3, 5% D2O (NOE at 25 C)
Condition parameters: protein: recombinant; tags: extra N-terminal Gly after TEV cleavage; His6-GB1 removed; chain copies: 2; label: 5' Alexa Fluor 488; hairpin (self-annealing, 11 bp stem, CCCC loop)
pKd: −log10 of the molar value.
Property measured: pKd

CCTGACGTCAGCCCCCTGACGTCAGG (structured_DNA) [AlexaFluor488-CREh] ... 9.42
